Experiment: Oral availability in Sprague-Dawley rat at 3 mg/kg
Format: ADME, organism-based
Set-up: dose 3 mg/kg
Settings: in vivo
metric: bioavailability (%)
Numbers only here, please. The scale is %.

Param item = Cc1c(COc2cccc(OCC3CCOCC3)c2)[nH]c2ccccc2c1=O ; retrieve measured bioavailability.
27

----------
Below, each entry is listed alongside its reported clearance.
Test: Total clearance in Sprague-Dawley rat at 0.3 mg/kg, iv
Assay type: ADME, organism-based
Design: dose 0.3 mg/kg, route intravenous
Details: in vivo
Numbers only here, please. The scale is mL/min/kg.

structure_string=Cc1c(COc2cc(OCCC(C)(C)O)ccn2)[nH]c2ccccc2c1=O metric=clearance result_value=6

# context switch: different compound, same clearance
Param item = Cc1c(COc2cccc(OCC3CCOCC3)c2)[nH]c2ccccc2c1=O ; retrieve measured clearance.
26

----------
Test: Cmax in Sprague-Dawley rat at 1 mg/kg, po
Format: ADME, organism-based
Design: dose 1 mg/kg, route oral
Details: in vivo
metric: Cmax (ng/mL)
Numbers only here, please. The scale is ng/mL.

Param item = Cc1c(COc2cc(OCCC(C)(C)O)ccn2)[nH]c2ccccc2c1=O ; retrieve measured Cmax.
202

----------
Test: Intrinsic clearance in human liver microsomes at 0.2 uM
Format: ADME, Microsome
Below, each entry is listed alongside its reported CLint scaled at 0.2 µM.

structure_string=Cc1c(COc2cccc(OCC3CCOCC3)c2)[nH]c2ccc(C(=O)O)cc2c1=O result_value="< 20 mL/min/kg"
structure_string=CCCCCC/C=C/Cc1[nH]c2ccccc2c(=O)c1C result_value="> 1000 mL/min/kg"
structure_string=COC(C)(C)CCOc1cccc(OCc2[nH]c3ccccc3c(=O)c2C)c1 result_value="> 1000 mL/min/kg"
structure_string=CCCCOc1cccc(OCc2[nH]c3ccccc3c(=O)c2C)c1 result_value="> 1000 mL/min/kg"
structure_string=CCCCCCCCCc1[nH]c2ccccc2c(=O)c1C result_value="> 1000 mL/min/kg"

# context switch: different compound, same CLint scaled at 0.2 µM
Param item = Cc1c(COc2cccc(OCC3CCOCC3)c2)[nH]c2ccc(Cl)cc2c1=O ; retrieve measured CLint scaled at 0.2 µM.
> 1000 mL/min/kg

----------
Below, each entry is listed alongside its reported solubility.
Experiment: Aqueous solubility of the compound at pH 6.8
Type: physicochemical
Details: aqueous medium

The cases that follow already have their solubility on record.
structure_string=Cc1c(COc2cccc(OCC3CCOCC3)c2)[nH]c2ccc(Cl)cc2c1=O metric=solubility result_value="< 1 µM"
structure_string=Cc1c(COCCCCO)nc2ccccc2c1O metric=solubility result_value="≥ 100 µM"
structure_string=Cc1c(COc2cccc(OCC3CCOCC3)c2)[nH]c2ccc(C(=O)O)cc2c1=O metric=solubility result_value="≥ 100 µM"

Param item = COc1ccc2[nH]c(COc3cccc(OCC4CCOCC4)c3)c(C)c(=O)c2c1 ; retrieve measured solubility.
< 1 µM

----------
Assay: Aqueous solubility of the compound at pH 6.8
Type: physicochemical
Details: aqueous medium
metric: solubility

The cases that follow already have their solubility on record.
structure_string=Cc1c(COc2cncc(OCCC(C)(C)O)c2)[nH]c2ccccc2c1=O result_value="≥ 100 µM"
structure_string=CCCCOc1cccc(OCc2[nH]c3ccccc3c(=O)c2C)c1 result_value="< 1 µM"

# context switch: different compound, same solubility
Param item = Cc1c(COCCCCOCC2(C)COC2)[nH]c2ccccc2c1=O ; retrieve measured solubility.
≥ 100 µM

The reported numbers originate from ChEMBL document CHEMBL1909616.
